conditions: in DMSO, 308.15 K

| molecule.smiles | solubility (mole fraction) |
| --- | --- |
| O=C(O)CCCC[C@@H]1SC[C@@H]2NC(=O)N[C@@H]21 | 0.0479 |

====

conditions: in DMF, 308.15 K

| molecule.smiles | solubility (mole fraction) |
| --- | --- |
| O=C(O)CCCC[C@@H]1SC[C@@H]2NC(=O)N[C@@H]21 | 0.00497 |

====

settings: in methanol, 313.25 K
experimental.readout: solubility (mole fraction)

| molecule.smiles | numeric.value |
| --- | --- |
| O=C(O)CCCC[C@@H]1SC[C@@H]2NC(=O)N[C@@H]21 | 0.000208 |

====

details: in water, 312.75 K

| molecule.smiles | solubility (mole fraction) |
| --- | --- |
| O=C(O)CCCC[C@@H]1SC[C@@H]2NC(=O)N[C@@H]21 | 2.06e-05 |

====

conditions: in DMSO, 303.15 K
experimental.readout: solubility (mole fraction)

| molecule.smiles | numeric.value |
| --- | --- |
| O=C(O)CCCC[C@@H]1SC[C@@H]2NC(=O)N[C@@H]21 | 0.0425 |

====

settings: in water, 332.95 K
experimental.readout: solubility (mole fraction)

| molecule.smiles | numeric.value |
| --- | --- |
| O=C(O)CCCC[C@@H]1SC[C@@H]2NC(=O)N[C@@H]21 | 0.000129 |

====

conditions: in DMF, 318.15 K
experimental.readout: solubility (mole fraction)

| molecule.smiles | experimental.readout | numeric.value |
| --- | --- | --- |
| O=C(O)CCCC[C@@H]1SC[C@@H]2NC(=O)N[C@@H]21 | solubility (mole fraction) | 0.0075 |

====

settings: in DMF, 328.15 K
experimental.readout: solubility (mole fraction)

| molecule.smiles | experimental.readout | numeric.value |
| --- | --- | --- |
| O=C(O)CCCC[C@@H]1SC[C@@H]2NC(=O)N[C@@H]21 | solubility (mole fraction) | 0.0107 |

====

details: in DMSO, 298.15 K

| molecule.smiles | solubility (mole fraction) |
| --- | --- |
| O=C(O)CCCC[C@@H]1SC[C@@H]2NC(=O)N[C@@H]21 | 0.0378 |

====

details: in ethanol, 333.85 K

| molecule.smiles | solubility (mole fraction) |
| --- | --- |
| O=C(O)CCCC[C@@H]1SC[C@@H]2NC(=O)N[C@@H]21 | 0.000582 |

====

details: in DMSO, 313.15 K
experimental.readout: solubility (mole fraction)

| molecule.smiles | numeric.value |
| --- | --- |
| O=C(O)CCCC[C@@H]1SC[C@@H]2NC(=O)N[C@@H]21 | 0.053 |

====

conditions: in ethanol, 308.85 K

| molecule.smiles | solubility (mole fraction) |
| --- | --- |
| O=C(O)CCCC[C@@H]1SC[C@@H]2NC(=O)N[C@@H]21 | 0.000133 |

====

conditions: in ethanol, 323.55 K

| molecule.smiles | solubility (mole fraction) |
| --- | --- |
| O=C(O)CCCC[C@@H]1SC[C@@H]2NC(=O)N[C@@H]21 | 0.000309 |

====

details: in water, 308.05 K
experimental.readout: solubility (mole fraction)

| molecule.smiles | experimental.readout | numeric.value |
| --- | --- | --- |
| O=C(O)CCCC[C@@H]1SC[C@@H]2NC(=O)N[C@@H]21 | solubility (mole fraction) | 1.28e-05 |

====

conditions: in methanol, 317.85 K
experimental.readout: solubility (mole fraction)

| molecule.smiles | numeric.value |
| --- | --- |
| O=C(O)CCCC[C@@H]1SC[C@@H]2NC(=O)N[C@@H]21 | 0.000298 |

====

conditions: in acetic acid, 317.95 K

| molecule.smiles | solubility (mole fraction) |
| --- | --- |
| O=C(O)CCCC[C@@H]1SC[C@@H]2NC(=O)N[C@@H]21 | 0.00509 |

====

details: in DMF, 323.25 K

| molecule.smiles | solubility (mole fraction) |
| --- | --- |
| O=C(O)CCCC[C@@H]1SC[C@@H]2NC(=O)N[C@@H]21 | 0.00902 |

====

conditions: in DMF, 303.25 K
experimental.readout: solubility (mole fraction)

| molecule.smiles | numeric.value |
| --- | --- |
| O=C(O)CCCC[C@@H]1SC[C@@H]2NC(=O)N[C@@H]21 | 0.00413 |

====

conditions: in acetic acid, 333.25 K
experimental.readout: solubility (mole fraction)

| molecule.smiles | experimental.readout | numeric.value |
| --- | --- | --- |
| O=C(O)CCCC[C@@H]1SC[C@@H]2NC(=O)N[C@@H]21 | solubility (mole fraction) | 0.00922 |

====

details: in acetic acid, 303.15 K

| molecule.smiles | solubility (mole fraction) |
| --- | --- |
| O=C(O)CCCC[C@@H]1SC[C@@H]2NC(=O)N[C@@H]21 | 0.00283 |

====

details: in DMSO, 322.75 K

| molecule.smiles | solubility (mole fraction) |
| --- | --- |
| O=C(O)CCCC[C@@H]1SC[C@@H]2NC(=O)N[C@@H]21 | 0.0633 |

====

settings: in acetic acid, 313.25 K

| molecule.smiles | solubility (mole fraction) |
| --- | --- |
| O=C(O)CCCC[C@@H]1SC[C@@H]2NC(=O)N[C@@H]21 | 0.00424 |

====

conditions: in DMF, 313.15 K

| molecule.smiles | solubility (mole fraction) |
| --- | --- |
| O=C(O)CCCC[C@@H]1SC[C@@H]2NC(=O)N[C@@H]21 | 0.00603 |

====

conditions: in DMSO, 318.05 K

| molecule.smiles | solubility (mole fraction) |
| --- | --- |
| O=C(O)CCCC[C@@H]1SC[C@@H]2NC(=O)N[C@@H]21 | 0.0582 |

====

conditions: in water, 303.15 K
experimental.readout: solubility (mole fraction)

| molecule.smiles | experimental.readout | numeric.value |
| --- | --- | --- |
| O=C(O)CCCC[C@@H]1SC[C@@H]2NC(=O)N[C@@H]21 | solubility (mole fraction) | 8.18e-06 |

====

conditions: in ethanol, 298.15 K

| molecule.smiles | solubility (mole fraction) |
| --- | --- |
| O=C(O)CCCC[C@@H]1SC[C@@H]2NC(=O)N[C@@H]21 | 6.35e-05 |

====

settings: in ethanol, 302.95 K

| molecule.smiles | solubility (mole fraction) |
| --- | --- |
| O=C(O)CCCC[C@@H]1SC[C@@H]2NC(=O)N[C@@H]21 | 8.69e-05 |

====

details: in acetic acid, 327.85 K
experimental.readout: solubility (mole fraction)

| molecule.smiles | result |
| --- | --- |
| O=C(O)CCCC[C@@H]1SC[C@@H]2NC(=O)N[C@@H]21 | 0.00766 |

====

details: in methanol, 298.15 K

| molecule.smiles | solubility (mole fraction) |
| --- | --- |
| O=C(O)CCCC[C@@H]1SC[C@@H]2NC(=O)N[C@@H]21 | 6.92e-05 |

====

settings: in ethanol, 313.95 K

| molecule.smiles | solubility (mole fraction) |
| --- | --- |
| O=C(O)CCCC[C@@H]1SC[C@@H]2NC(=O)N[C@@H]21 | 0.000176 |

====

conditions: in methanol, 332.95 K
experimental.readout: solubility (mole fraction)

| molecule.smiles | numeric.value |
| --- | --- |
| O=C(O)CCCC[C@@H]1SC[C@@H]2NC(=O)N[C@@H]21 | 0.000862 |

Ref: BigSolDB 2.1
